# test_target: bovine trypsin (Bos taurus, UniProt P00760)
# Construct: purchased Sigma Aldrich; host or cells: bovine pancreas
# Sequence (P00760 24-246): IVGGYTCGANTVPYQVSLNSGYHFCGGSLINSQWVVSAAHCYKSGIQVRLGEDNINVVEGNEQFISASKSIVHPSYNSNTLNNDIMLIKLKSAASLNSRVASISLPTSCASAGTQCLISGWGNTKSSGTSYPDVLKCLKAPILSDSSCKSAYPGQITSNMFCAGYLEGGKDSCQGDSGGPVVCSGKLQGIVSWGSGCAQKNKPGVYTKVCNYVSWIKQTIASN
# experiment_description: Fluorescence anisotropy titration of fluorescein-labelled ODNs with increasing trypsin
# Format: binding
# condition_set: preformed quadruplex, 2 nM ODN, high salt (20 or 25 mM KCl, 200 mM NaCl, 25 mM Hepes, pH 7.4), 25° C., 1:1 fit; read-out: dissociation constant (Kd) for trypsin
result_type: pKd
In textbook form, pKd equals minus log to base ten of the concentration in mol/L.

# annotated cases, reported pKd shown
ODN 4: 5′-TTGGTTGGTGTGGTTGGT-3′, no arms, 5′ terminal dT bearing fluorescein; negative control (listed as DNA, chemistry not fully specified)    2.54
ODN 3 (TTGGTTGGTGTGGTTGGT; 3' ipt arm attached, fluorescein-dT conjugate, further chemistry not given here)    4.05
AC 1 (TTGGTTGGTGTGGTTGGT; 5' dT fluorescein conjugate, ba and ipt arms attached, further chemistry not given here)    6.09

Proceed to the following item.
Inquiry: Any idea what pKd came out for ODN 2 (TTGGTTGGTGTGGTTGGT; 5' ba arm attached, fluorescein-dT conjugate, further chemistry not given here) on bovine trypsin (Bos taurus, UniProt P00760)?
Reply text: 4.54

----------
# test_target: bovine trypsin (Bos taurus)
# Construct: purchased Sigma Aldrich; host or cells: bovine pancreas
# experiment_description: Fluorescence anisotropy titration of fluorescein-labelled ODNs with increasing trypsin
# Type: binding
# condition_set: preformed quadruplex, 2 nM ODN, 5 mM KCl, 25 mM Hepes, pH 7.4; read-out: dissociation constant (Kd) for trypsin, low-salt conditions
Each record here notes measured Kd.
Give a bare numeral; the unit µM is implied.

Inquiry: Item ODN 4: 5′-TTGGTTGGTGTGGTTGGT-3′, no arms, 5′ terminal dT bearing fluorescein; negative control (listed as DNA, chemistry not fully specified) has what recorded Kd?
Reply text: 31

Inquiry: Another: AC 1 (TTGGTTGGTGTGGTTGGT; 5' dT fluorescein conjugate, ba and ipt arms attached, further chemistry not given here)
Reply text: 2.8
